test system: RB1; experiment: 3' UTR reporter interaction score (median-centred robust z-score of log2 firefly/Renilla activity); higher = less repression of the 3' UTR reporter; details: HEK293T; 48 h
If the reported 3' UTR reporter interaction score equals or exceeds 0.1, assign Fulfilled. If not, assign Not fulfilled.

            polymer_sequence  measured_target  assigned_class
 0      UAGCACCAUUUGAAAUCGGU              RB1   Not fulfilled
 1    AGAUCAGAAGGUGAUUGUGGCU              RB1   Not fulfilled
 2    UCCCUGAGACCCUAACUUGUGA              RB1   Not fulfilled
 3    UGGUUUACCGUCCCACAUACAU              RB1       Fulfilled
 4   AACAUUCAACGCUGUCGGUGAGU              RB1       Fulfilled
 5    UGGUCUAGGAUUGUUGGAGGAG              RB1   Not fulfilled
 6    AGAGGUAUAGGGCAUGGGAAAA              RB1   Not fulfilled
 7  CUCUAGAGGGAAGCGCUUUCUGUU              RB1   Not fulfilled
 8     UAGGUAGUUUCAUGUUGUUGG              RB1       Fulfilled
 9   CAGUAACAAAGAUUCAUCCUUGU              RB1   Not fulfilled
10      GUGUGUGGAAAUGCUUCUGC              RB1       Fulfilled
11   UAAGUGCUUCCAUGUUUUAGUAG              RB1       Fulfilled
12     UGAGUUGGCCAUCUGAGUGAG              RB1   Not fulfilled
13   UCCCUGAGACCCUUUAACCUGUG              RB1   Not fulfilled
14    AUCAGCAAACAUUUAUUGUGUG              RB1       Fulfilled
15    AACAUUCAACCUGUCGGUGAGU              RB1       Fulfilled
16     UAUUGCACAUUACUAAGUUGC              RB1       Fulfilled
17     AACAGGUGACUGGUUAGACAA              RB1   Not fulfilled
18      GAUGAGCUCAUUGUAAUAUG              RB1       Fulfilled
19    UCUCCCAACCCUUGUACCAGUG              RB1   Not fulfilled
20     UUGAAACAAUCUCUACUGAAC              RB1   Not fulfilled
21     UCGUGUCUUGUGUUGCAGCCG              RB1   Not fulfilled
22  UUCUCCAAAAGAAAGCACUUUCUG              RB1       Fulfilled
23  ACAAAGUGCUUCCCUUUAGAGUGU              RB1       Fulfilled
24    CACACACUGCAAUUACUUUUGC              RB1   Not fulfilled
25   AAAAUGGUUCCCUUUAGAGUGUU              RB1   Not fulfilled
26    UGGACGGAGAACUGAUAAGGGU              RB1   Not fulfilled
27   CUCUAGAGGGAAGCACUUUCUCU              RB1   Not fulfilled
28     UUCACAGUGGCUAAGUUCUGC              RB1   Not fulfilled
29    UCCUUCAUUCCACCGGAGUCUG              RB1       Fulfilled
30  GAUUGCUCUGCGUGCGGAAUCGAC              RB1       Fulfilled
31    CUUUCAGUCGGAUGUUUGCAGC              RB1   Not fulfilled
32    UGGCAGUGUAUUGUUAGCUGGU              RB1   Not fulfilled
